Listed compounds paired with reported mass density
experimentalConditions: 303.15 K; 100 kPa; Liquid
# number only, unit kg/m3 dropped from output

Here is how some compounds turned out for mass density.
CCOS(=O)(=O)[O-].CCn1cc[n+](C)c1 [1-ethyl-3-methylimidazolium ethyl sulfate] = 1240.8
CCn1cc[n+](CC)c1.O=S(=O)([N-]S(=O)(=O)C(F)(F)F)C(F)(F)F [1,3-diethylimidazolium bis[(trifluoromethyl)sulfonyl]imide] = 1457.7
CCCCCCCCCCn1cc[n+](C)c1.O=S(=O)([N-]S(=O)(=O)C(F)(F)F)C(F)(F)F = 1273.6

Dear colleague, I am looking for the recorded mass density of the following compound: CCn1cc[n+](C)c1.COS(=O)(=O)[O-] [1-ethyl-3-methylimidazolium methylsulfate]
1283.3

* * *

Listed compounds paired with reported mass density
experimentalConditions: 373.15 K; 20000 kPa; Liquid
# number only, unit kg/m3 dropped from output

CCn1cc[n+](C)c1.COS(=O)(=O)[O-] [1-ethyl-3-methylimidazolium methylsulfate] = 1241.2
CCOS(=O)(=O)[O-].CCn1cc[n+](C)c1 [1-ethyl-3-methylimidazolium ethyl sulfate] = 1200.2
CCn1cc[n+](CC)c1.O=S(=O)([N-]S(=O)(=O)C(F)(F)F)C(F)(F)F [1,3-diethylimidazolium bis[(trifluoromethyl)sulfonyl]imide] = 1403.7

Dear colleague, I am looking for the recorded mass density of the following compound: CCCCCCCCCCn1cc[n+](C)c1.O=S(=O)([N-]S(=O)(=O)C(F)(F)F)C(F)(F)F
1228.6

* * *

experimentalConditions: 393.15 K; 20000 kPa; Liquid
measurementType: mass density (kg/m3)
# number only, unit kg/m3 dropped from output

CCOS(=O)(=O)[O-].CCn1cc[n+](C)c1 [1-ethyl-3-methylimidazolium ethyl sulfate] = 1187.2
CCn1cc[n+](C)c1.COS(=O)(=O)[O-] [1-ethyl-3-methylimidazolium methylsulfate] = 1227.9
CCCCCCCCCCn1cc[n+](C)c1.O=S(=O)([N-]S(=O)(=O)C(F)(F)F)C(F)(F)F = 1212.8

Dear colleague, I am looking for the recorded mass density of the following compound: CCn1cc[n+](CC)c1.O=S(=O)([N-]S(=O)(=O)C(F)(F)F)C(F)(F)F [1,3-diethylimidazolium bis[(trifluoromethyl)sulfonyl]imide]
1384.9

* * *

experimentalConditions: 298.15 K; 100 kPa; Liquid
measurementType: mass density (kg/m3)
# number only, unit kg/m3 dropped from output

Here is how some molecules turned out for mass density.
CCOS(=O)(=O)[O-].CCn1cc[n+](C)c1 [1-ethyl-3-methylimidazolium ethyl sulfate] = 1244.3
CCn1cc[n+](C)c1.COS(=O)(=O)[O-] [1-ethyl-3-methylimidazolium methylsulfate] = 1288
CCn1cc[n+](CC)c1.O=S(=O)([N-]S(=O)(=O)C(F)(F)F)C(F)(F)F [1,3-diethylimidazolium bis[(trifluoromethyl)sulfonyl]imide] = 1463.2

Kindly consider the entry below.
Dear colleague, I am looking for the recorded mass density of the following molecule: CCCCCCCCCCn1cc[n+](C)c1.O=S(=O)([N-]S(=O)(=O)C(F)(F)F)C(F)(F)F
1278

* * *

experimentalConditions: 393.15 K; 15000 kPa; Liquid
measurementType: mass density (kg/m3)
# number only, unit kg/m3 dropped from output

CCCCCCCCCCn1cc[n+](C)c1.O=S(=O)([N-]S(=O)(=O)C(F)(F)F)C(F)(F)F = 1208.2
CCOS(=O)(=O)[O-].CCn1cc[n+](C)c1 [1-ethyl-3-methylimidazolium ethyl sulfate] = 1184.6
CCn1cc[n+](CC)c1.O=S(=O)([N-]S(=O)(=O)C(F)(F)F)C(F)(F)F [1,3-diethylimidazolium bis[(trifluoromethyl)sulfonyl]imide] = 1380.2

Kindly consider the entry below.
Dear colleague, I am looking for the recorded mass density of the following compound: CCn1cc[n+](C)c1.COS(=O)(=O)[O-] [1-ethyl-3-methylimidazolium methylsulfate]
1225.5

* * *

experimentalConditions: 373.15 K; 25000 kPa; Liquid
Listed compounds paired with reported mass density
# number only, unit kg/m3 dropped from output

Here is how some compounds turned out for mass density.
CCn1cc[n+](C)c1.COS(=O)(=O)[O-] [1-ethyl-3-methylimidazolium methylsulfate] = 1243.5
CCCCCCCCCCn1cc[n+](C)c1.O=S(=O)([N-]S(=O)(=O)C(F)(F)F)C(F)(F)F = 1232.9
CCn1cc[n+](CC)c1.O=S(=O)([N-]S(=O)(=O)C(F)(F)F)C(F)(F)F [1,3-diethylimidazolium bis[(trifluoromethyl)sulfonyl]imide] = 1408.1

Dear colleague, I am looking for the recorded mass density of the following compound: CCOS(=O)(=O)[O-].CCn1cc[n+](C)c1 [1-ethyl-3-methylimidazolium ethyl sulfate]
1202.6

* * *

experimentalConditions: 303.15 K; 10000 kPa; Liquid
measurementType: mass density (kg/m3)
# number only, unit kg/m3 dropped from output

Here is how some molecules turned out for mass density.
CCn1cc[n+](CC)c1.O=S(=O)([N-]S(=O)(=O)C(F)(F)F)C(F)(F)F [1,3-diethylimidazolium bis[(trifluoromethyl)sulfonyl]imide] = 1466.1
CCn1cc[n+](C)c1.COS(=O)(=O)[O-] [1-ethyl-3-methylimidazolium methylsulfate] = 1287.4
CCCCCCCCCCn1cc[n+](C)c1.O=S(=O)([N-]S(=O)(=O)C(F)(F)F)C(F)(F)F = 1282.1

Dear colleague, I am looking for the recorded mass density of the following molecule: CCOS(=O)(=O)[O-].CCn1cc[n+](C)c1 [1-ethyl-3-methylimidazolium ethyl sulfate]
1244.9

* * *

experimentalConditions: 353.15 K; 35000 kPa; Liquid
measurementType: mass density (kg/m3)
# number only, unit kg/m3 dropped from output

Here is how some compounds turned out for mass density.
CCCCCCCCCCn1cc[n+](C)c1.O=S(=O)([N-]S(=O)(=O)C(F)(F)F)C(F)(F)F = 1257.9
CCn1cc[n+](C)c1.COS(=O)(=O)[O-] [1-ethyl-3-methylimidazolium methylsulfate] = 1262.2
CCOS(=O)(=O)[O-].CCn1cc[n+](C)c1 [1-ethyl-3-methylimidazolium ethyl sulfate] = 1220.6

Kindly consider the entry below.
Dear colleague, I am looking for the recorded mass density of the following compound: CCn1cc[n+](CC)c1.O=S(=O)([N-]S(=O)(=O)C(F)(F)F)C(F)(F)F [1,3-diethylimidazolium bis[(trifluoromethyl)sulfonyl]imide]
1435.6

* * *

experimentalConditions: 303.15 K; 30000 kPa; Liquid
Listed compounds paired with reported mass density
# number only, unit kg/m3 dropped from output

Here is how some compounds turned out for mass density.
CCn1cc[n+](CC)c1.O=S(=O)([N-]S(=O)(=O)C(F)(F)F)C(F)(F)F [1,3-diethylimidazolium bis[(trifluoromethyl)sulfonyl]imide] = 1480.9
CCCCCCCCCCn1cc[n+](C)c1.O=S(=O)([N-]S(=O)(=O)C(F)(F)F)C(F)(F)F = 1296.3
CCOS(=O)(=O)[O-].CCn1cc[n+](C)c1 [1-ethyl-3-methylimidazolium ethyl sulfate] = 1253.2

Kindly consider the entry below.
Dear colleague, I am looking for the recorded mass density of the following compound: CCn1cc[n+](C)c1.COS(=O)(=O)[O-] [1-ethyl-3-methylimidazolium methylsulfate]
1295.3

* * *

experimentalConditions: 333.15 K; 25000 kPa; Liquid
± gives the expanded uncertainty stated by the source.
measurementType: mass density

CCn1cc[n+](C)c1.COS(=O)(=O)[O-] [1-ethyl-3-methylimidazolium methylsulfate] = 1272 ± 3.8 kg/m3
CCCCCCCCCCn1cc[n+](C)c1.O=S(=O)([N-]S(=O)(=O)C(F)(F)F)C(F)(F)F = 1265.7 ± 3.7 kg/m3
CCn1cc[n+](CC)c1.O=S(=O)([N-]S(=O)(=O)C(F)(F)F)C(F)(F)F [1,3-diethylimidazolium bis[(trifluoromethyl)sulfonyl]imide] = 1447.2 ± 5.5 kg/m3

Dear colleague, I am looking for the recorded mass density of the following compound: CCOS(=O)(=O)[O-].CCn1cc[n+](C)c1 [1-ethyl-3-methylimidazolium ethyl sulfate]
1229.3 ± 3.4 kg/m3

* * *

Listed compounds paired with reported mass density
experimentalConditions: 293.15 K; 5000 kPa; Liquid
# number only, unit kg/m3 dropped from output

Here is how some compounds turned out for mass density.
CCn1cc[n+](C)c1.COS(=O)(=O)[O-] [1-ethyl-3-methylimidazolium methylsulfate] = 1294
CCCCCCCCCCn1cc[n+](C)c1.O=S(=O)([N-]S(=O)(=O)C(F)(F)F)C(F)(F)F = 1287.4
CCn1cc[n+](CC)c1.O=S(=O)([N-]S(=O)(=O)C(F)(F)F)C(F)(F)F [1,3-diethylimidazolium bis[(trifluoromethyl)sulfonyl]imide] = 1473.1

Kindly consider the entry below.
Dear colleague, I am looking for the recorded mass density of the following compound: CCOS(=O)(=O)[O-].CCn1cc[n+](C)c1 [1-ethyl-3-methylimidazolium ethyl sulfate]
1250.2
